# assay_target: human IL-1RAcP on cells (human, UniProt Q9NPH3 21-570)
# assay_overview: cell-based or functional assay
Each entry below lists one item and its recorded IC50, IFNγ release, PBMC stimulated with IL-33 value.
Report only the number, with the unit pM understood.

// below: answered binders
>>> recorded_value("h11C5 YKD (antibody, human IgG1, kappa, V domains shown, Variable domains of h11C5 YKD on the same modified IgG1 kappa constant regions (AEASS); Printed as 'h1105' in much of the text; also called h1105) VH: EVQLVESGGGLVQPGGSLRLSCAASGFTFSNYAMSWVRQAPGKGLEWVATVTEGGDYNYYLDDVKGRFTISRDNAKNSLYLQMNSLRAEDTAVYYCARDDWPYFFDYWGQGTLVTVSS VL: DIQMTQSPSSLSASVGDRVTITCRASENIYSNLAWYQQKPGKSPKLLVYGYKNLADVPSRFSGSGSGTDYTLTISSLQPEDFATYYCQHFKTTPRTFGGGTKVEIKR")
820
>>> recorded_value("Y024084_h_IgG1f_AEASS (antibody, V domains shown, also called Morphosys 24084; Mor Y024084) VH: QVQLVQSGAEVKKPGASVKVSCKASGYTFTSYYMHWVRQAPGQGLEWMGIINPSGGSTSYAQKFQGRVTMTRDTSTSTVYMELSSLRSEDTAVYYCARGFVTSGIDYWGQGTLVTVSS VL: QSVLTQPPSVSAAPGQKVTISCSGSSSNIGNNYVSWYQQLPGTAPKLLIYDNNKRPSGIPDRFSGSKSGTSATLGITGLQTEDEADYYCQTWTYTGRLWIVFGGGTKLTVLG")
690
>>> recorded_value("R001031 (CAN04) (antibody, human IgG1, kappa, V domains shown, Variable domains of prior art CAN04 on human IgG1 kappa constant regions with AEASS) VH: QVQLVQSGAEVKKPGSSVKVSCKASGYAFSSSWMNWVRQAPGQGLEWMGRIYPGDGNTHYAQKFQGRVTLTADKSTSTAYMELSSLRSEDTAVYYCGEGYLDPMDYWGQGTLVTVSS VL: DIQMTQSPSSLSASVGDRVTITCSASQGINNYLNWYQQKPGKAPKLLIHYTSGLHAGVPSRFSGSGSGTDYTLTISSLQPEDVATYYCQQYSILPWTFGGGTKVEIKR")
1300

Switching to the query record.
Request: Suppose we examine the binder Y024148_h_IgG1f_AEASS (antibody, V domains shown, Human IgG1f with AEASS effector-silencing residues, kappa light chain) VH: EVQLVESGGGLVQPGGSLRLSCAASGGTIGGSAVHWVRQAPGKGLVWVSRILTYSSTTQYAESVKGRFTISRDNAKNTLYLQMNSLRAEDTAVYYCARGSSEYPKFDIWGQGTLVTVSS VL: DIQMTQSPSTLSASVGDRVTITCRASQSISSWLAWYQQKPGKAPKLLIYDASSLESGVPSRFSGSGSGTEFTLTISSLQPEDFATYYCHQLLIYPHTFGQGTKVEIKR ; what IC50, IFNγ release, PBMC stimulated with IL-33 value has been reported?
Response: 720
